# Test system: SMN protein
# procedure-text: cellular SMN ELISA (SMN protein elevation)
# Format: cell-based
# test-context: myoblast cell line derived from SMNdelta7 mouse model; 24 hours compound treatment; concentration range 100 pM-10 uM
readout-label: SMN Activity Fold (fold activation over DMSO control)

molecule="COc1ccc(-c2ccc(-c3nnc(N(C)C4CC(C)(C)NC(C)(C)C4)s3)c(Cl)c2)cn1 [Example 44]" endpoint_result="2.26 fold"
molecule="Oc1ccc2cc(-c3nnc(N4C[C@H]5CNC[C@H]5C4)s3)c(O)cc2c1 [Example 21]" endpoint_result="2.66 fold"
molecule="CN(c1nnc(-c2cc3c(cc2O)C(=O)CC3)s1)C1CC(C)(C)NC(C)(C)C1 [Example 92]" endpoint_result="2.50 fold"
molecule="CN1CCC2(CCCN(c3nnc(-c4ccc(-c5cn[nH]c5)cc4Cl)s3)C2)C1 (stereo not drawn) [Example 83]" endpoint_result="2.59 fold"
molecule="CN(C)CC1CN(c2nnc(-c3ccc(-c4cn[nH]c4)cc3Cl)s2)CCO1 (stereo not drawn) [Example 82]" endpoint_result="2.50 fold"

Exercise: Print SMN protein SMN Activity Fold (fold activation over DMSO control) for COc1cc(-c2sc(C)nc2C)ccc1-c1nnc(N(C)C2CC(C)(C)NC(C)(C)C2)s1 [Example 74] .
Solution: 2.64 fold

Exercise: Look up SMN protein data: SMN Activity Fold (fold activation over DMSO control) of CN(c1nnc(-c2ccc(-c3ccn(C)c(=O)c3)cc2O)s1)C1CC(C)(C)NC(C)(C)C1 [Example 18] , then report it.
Solution: 3.36 fold

Exercise: Give SMN protein SMN Activity Fold (fold activation over DMSO control) for the following molecule: COc1cc2ncccc2cc1-c1nnc(N(C)C2CC(C)(C)NC(C)(C)C2)s1 [Example 31]
Solution: 2.43 fold

----------
Overview of recorded SMN Activity Fold (fold activation over DMSO control) for various compounds
# Tested on: SMN protein
# procedure-text: cellular SMN ELISA (SMN protein elevation)
# Assay type: cell-based
# test-context: myoblast cell line derived from SMNdelta7 mouse model; 24 hours compound treatment; concentration range 100 pM-10 uM
Counter-ions that a name gives are not always drawn.
Form entry: value (fold) — number only.

compound="Cn1cc(-c2ccc(-c3nnc(N4CC5(CCCNC5)C4)s3)c(O)c2)cn1 [Example 94]" target_of_assay="SMN protein" endpoint_result=2.59
compound="Oc1cc(-c2cn[nH]c2)cc(F)c1-c1nnc(N2C[C@H]3CNC[C@H]3C2)s1 [Example 96, hydrochloride salt]" target_of_assay="SMN protein" endpoint_result=2.85
compound="CN(c1nnc(-c2ccc(-c3ccn[nH]3)cc2F)s1)C1CC(C)(C)NC(C)(C)C1 [Example 47]" target_of_assay="SMN protein" endpoint_result=2.29
compound="CN(c1nnc(-c2ccc(-c3cnn(C)c3)cn2)s1)C1CC(C)(C)NC(C)(C)C1 [Example 42, Hydrochloride salt]" target_of_assay="SMN protein" endpoint_result=2.32
compound="CN(c1nnc(-c2ccc(-n3cccn3)cc2Cl)s1)C1CC(C)(C)NC(C)(C)C1 [Example 65]" target_of_assay="SMN protein" endpoint_result=2.37
compound="CNc1ccn(-c2ccc(-c3nnc(N(C)C4CC(C)(C)NC(C)(C)C4)s3)c(OC)c2)n1 [Example 36]" target_of_assay="SMN protein" endpoint_result=2.15

Exercise: Give the reported value of SMN Activity Fold (fold activation over DMSO control) for this record: COc1cc(-c2cnn(C)c2)ccc1-c1nnc(N(C)C2CC(C)(C)NC(C)(C)C2)s1 [Example 6]
Solution: 2.49

Exercise: Tell us which SMN Activity Fold (fold activation over DMSO control) value is on record for CN(c1nnc(-c2ccc(-c3ccn[nH]3)c(F)c2F)s1)C1CC(C)(C)NC(C)(C)C1 [Example 49]
Solution: 2.42

Exercise: Return SMN Activity Fold (fold activation over DMSO control) (reported value) for this compound: COc1ccc(-c2ccc(-c3nnc(N(C)C4CC(C)(C)NC(C)(C)C4)s3)c(OC)c2)cn1 [Example 78]
Solution: 2.52

Exercise: Return value of SMN Activity Fold (fold activation over DMSO control) for input CN(c1nnc(-c2cc3ccccc3[nH]c2=O)s1)C1CC(C)(C)NC(C)(C)C1 [Example 103] , no commentary.
Solution: 2.47

Exercise: Tell me its SMN Activity Fold (fold activation over DMSO control) given CN(c1nnc(-c2ccc(-c3cnn(C)c3)cc2O)s1)C1CC(C)(C)NC(C)(C)C1 [Example 15] as the entry.
Solution: 3.14

Exercise: Please report SMN Activity Fold (fold activation over DMSO control) for the following compound: CN(c1nnc(-c2cc3cccnc3cc2O)s1)C1CC(C)(C)NC(C)(C)C1 [Example 32]
Solution: 2.48

----------
# System: SMN protein
# procedure-text: cellular SMN ELISA (SMN protein elevation)
# Format: cell-based
# test-context: myoblast cell line derived from SMNdelta7 mouse model; 24 hours compound treatment; concentration range 100 pM-10 uM
readout-label: SMN Activity Fold (fold activation over DMSO control) (fold)
Numeric answer only, unit fold assumed.

Answered examples (4):
molecule=CN(c1nnc(-c2ccc(-n3nccn3)cc2Cl)s1)C1CC(C)(C)NC(C)(C)C1 endpoint_result=2.45
molecule=CN(c1nnc(-c2cc(F)c(-c3cn[nH]c3)cc2F)s1)C1CC(C)(C)NC(C)(C)C1 endpoint_result=3.07
molecule=COc1ccc2c(c1)CCN(c1nnc(N(C)C3CC(C)(C)NC(C)(C)C3)s1)C2=O endpoint_result=2.51
molecule=COc1cc2ccccc2cc1-c1nnc(N(C)C2CC(C)(C)NC(C)(C)C2)s1 endpoint_result=2.48

Exercise: Consider the molecule CN(c1nnc(-c2ccc(C#N)cc2F)s1)C1CC(C)(C)NC(C)(C)C1 . State its measured SMN Activity Fold (fold activation over DMSO control).
Solution: 2.32

Exercise: Quickly give me recorded SMN Activity Fold (fold activation over DMSO control) for Cc1cc(-c2cnn(C)c2)ccc1-c1nnc(N(C)C2CC(C)(C)NC(C)(C)C2)s1
Solution: 2.84

Exercise: Identify the reported SMN Activity Fold (fold activation over DMSO control) for the following entry. COc1cc(-c2cn[nH]c2)c(F)c(F)c1-c1nnc(N(C)C2CC(C)(C)NC(C)(C)C2)s1
Solution: 3.13

Exercise: Given Cn1cc(-c2ccc(-c3nnc(NC4CC(C)(C)NC(C)(C)C4)s3)c(Cl)c2)cn1 , respond with its SMN Activity Fold (fold activation over DMSO control).
Solution: 2.48
